# METHOD NOTES: Quantitative High-Throughput drug screen in 47 multiple myeloma cell lines against the NCATS MIPE library collection: KMS26_JCRB cell viability assay (AID 1918975); note: nearly all actives have a fitted effect of over 45% in size
# CONDITION CONTEXT: KMS26 myeloma cells viability, CellTiter-Glo ATP, 48 h; series mostly up to 45.8 µM
Records with an inconclusive call do not appear. Active and inactive are the calls of the source. Calls come from the whole dose curve; as a rule, active = well fitted cell-killing curve with a large enough effect; inconclusive = small, poorly fitted or top-dose-only effect, or effect the other way; inactive = no such curve, though single readings can be large or run the other way.
Possible outcomes: Y (active), N (inactive)

MOLECULE	CLASS LABEL
Oc1ccc2c3c1O[C@H]1c4[nH]c5c(c4C[C@@]4(O)[C@@H](C2)N(CC2CC2)CC[C@]314)C[C@@]1(O)[C@H]2Cc3ccc(O)c4c3[C@@]1(CCN2CC1CC1)[C@H]5O4	N
CC(C)N[C@@H]1CCn2c(=O)[nH]c3cccc(c32)[C@@H]1O	Y
C[C@]12CCC(=O)C(O)=C1CC[C@@H]1[C@H]3CCC(=O)[C@@]3(C)CC[C@@H]12	N
O=S(=O)(CC1CS1)c1ccc(Oc2ccccc2)cc1 (configuration not stated)	Y
CC(=O)N(C)c1cccc(-c2ccnc3c(C(=O)c4cccs4)cnn23)c1	N
CC=C(C)C(=O)O[C@H]1C(C)=C2[C@@H]3OC(=O)[C@@](C)(O)[C@@]3(O)[C@@H](OC(=O)CCC)C[C@](C)(OC(C)=O)[C@@H]2[C@@H]1OC(=O)CCCCCCC	Y
CC(=O)O[C@@]12CO[C@H]1C[C@H](O)[C@@]1(C)C(=O)[C@H](O)C3=C(C)[C@@H](O)C[C@@](O)([C@@H](OC(=O)c4ccccc4)[C@@H]21)C3(C)C	N
